Source listed as the supplement of paper PMC5998384.

Entries and their measured solubility change mitosis (log2) follow.
Tested on: HeLa Kyoto;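 note: synchronized HeLa Kyoto cells (double thymidine block for G1/S, nocodazole release for mitosis), protein amounts in NP-40 versus SDS lysates quantified by mass spectrometry, three biological replicates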
Method Description: solubility change mitosis vs G1/S (difference of NP-40 vs SDS log2 ratios) (log2 ratio difference); higher = more soluble in mitosis
# print the numeric value only

Examples with their reported solubility change mitosis (log2) follow.
Per the reported HeLa Kyoto data, MKQDASRNAAYTVDCEDYVHVVEFNPFENGDSGNLIAYGGNNYVVIGTCTFQEEEADVEGIQYKTLRTFHHGVRVDGIAWSPETRLDSLPPVIKFCTSAADMKIRLFTSDLQDKNEYKVLEGHTDFINGLVFDPKEGQEIASVSDDHTCRIWNLEGVQTAHFVLHSPGMSVCWHPEETFKLMVAEKNGTIRFYDLLAQQAILSLESEQVPLMSAHWCLKNTFKVGAVAGNDWLIWDITRSSYPQNKRPVHMDRACLFRWSTISENLFATTGYPGKMASQFQIHHLGHPQPILMGSVAVGSGLSWHRTLPLCVIGGDHKLLFWVTEV [NUP37] has solubility change mitosis (log2) of 0.135

Lab note: sequence MAAAVGRLLRASVARHVSAIPWGISATAALRPAACGRTSLTNLLCSGSSQAKLFSTSSSCHAPAVTQHAPYFKGTAVVNGEFKDLSLDDFKGKYLVLFFYPLDFTFVCPTEIVAFSDKANEFHDVNCEVVAVSVDSHFSHLAWINTPRKNGGLGHMNIALLSDLTKQISRDYGVLLEGSGLALRGLFIIDPNGVIKHLSVNDLPVGRSVEETLRLVKAFQYVETHGEVCPANWTPDSPTIKPSPAASKEYFQKVNQ [PRDX3] tested on HeLa Kyoto; recorded solubility change mitosis (log2) was -0.00401

Continuing:
Noted solubility change mitosis (log2) for MAAVKASTSKATRPWYSHPVYARYWQHYHQAMAWMQSHHNAYRKAVESCFNLPWYLPSALLPQSSYDNEAAYPQSFYDHHVAWQDYPCSSSHFRRSGQHPRYSSRIQASTKEDQALSKEEEMETESDAEVECDLSNMEITEELRQYFAETERHREERRRQQQLDAERLDSYVNADHDLYCNTRRSVEAPTERPGERRQAEMKRLYGDSAAKIQAMEAAVQLSFDKHCDRKQPKYWPVIPLKF [GEMIN8] , tested on HeLa Kyoto: 0.219

Entry MPSKSLVMEYLAHPSTLGLAVGVACGMCLGWSLRVCFGMLPKSKTSKTHTDTESEASILGDSGEYKMILVVRNDLKMGKGKVAAQCSHAAVSAYKQIQRRNPEMLKQWEYCGQPKVVVKAPDEETLIALLAHAKMLGLTVSLIQDAGRTQIAPGSQTVLGIGPGPADLIDKVTGHLKLY [PTRH2] under HeLa Kyoto had solubility change mitosis (log2) of 0.0782

// returns solubility change mitosis (log2) for MGPGGPLLSPSRGFLLCKTGWHSNRLLGDCGPHTPVSTALSFIAVGMAAPSMKERQVCWGARDEYWKCLDENLEDASQCKKLRSSFESSCPQQWIKYFDKRRDYLKFKEKFEAGQFEPSETTAKS [COA6] with HeLa Kyoto; value = 0.327

Log: HeLa Kyoto, sequence MALLRKINQVLLFLLIVTLCVILYKKVHKGTVPKNDADDESETPEELEEEIPVVICAAAGRMGATMAAINSIYSNTDANILFYVVGLRNTLTRIRKWIEHSKLREINFKIVEFNPMVLKGKIRPDSSRPELLQPLNFVRFYLPLLIHQHEKVIYLDDDVIVQGDIQELYDTTLALGHAAAFSDDCDLPSAQDINRLVGLQNTYMGYLDYRKKAIKDLGISPSTCSFNPGVIVANMTEWKHQRITKQLEKWMQKNVEENLYSSSLGGGVATSPMLIVFHGKYSTINPLWHIRHLGWNPDARYSEHFLQEAKLLHWNGRHKPWDFPSVHNDLWESWFVPDPAGIFKLNHHS [GLT8D2] , solubility change mitosis (log2) = -0.357

Kindly note: HeLa Kyoto, MSTAREQPIFSTRAHVFQIDPATKRNWIPAGKHALTVSYFYDATRNVYRIISIGGAKAIINSTVTPNMTFTKTSQKFGQWADSRANTVYGLGFASEQHLTQFAEKFQEVKEAARLAREKSQDGGELTSPALGLASHQVPPSPLVSANGPGEEKLFRSQSADAPGPTERERLKKMLSEGSVGEVQWEAEFFALQDSNNKLAGALREANAAAAQWRQQLEAQRAEAERLRQRVAELEAQAASEVTPTGEKEGLGQGQSLEQLEALVQTKDQEIQTLKSQTGGPREALEAAEREETQQKVQDLETRNAELEHQLRAMERSLEEARAERERARAEVGRAAQLLDVSLFELSELREGLARLAEAAP [HOMER3] , solubility change mitosis (log2) value reported: 0.0389

Assay HeLa Kyoto, sample MADSSPALSLREGGPRAPRPSAPSPPPRSRSGSESEEAELSLSLARTKTRSYGSTASVRAPLGAGVIERHVEHRVRAGDTLQGIALKYGVTMEQIKRANKLFTNDCIFLKKTLNIPVISEKPLLFNGLNSIDSPENETADNSFSQEEEPVVAGEDLPPPSPQESDVQPVQPEEVSARDFLQRLDLQIKLSTQAAKKLKEESRDEESPYATSLYHS [LYSMD2] , solubility change mitosis (log2) read: -0.0367

# lookup: MSLRRHIGNPEYLMKRIPQNPRYQHIKSRLDTGNSMTKYTEKLEEIKKNYRYKKDELFKRLKVTTFAQLIIQVASLSDQTLEVTAEEIQRLEDNDSAASDPDAETTARTNGKGNPGEQSPSPEQFINNAGAGDSSRSTLQSVISGVGELDLDKGPVKKAEPHTKDKPYPDCPFLLLDVRDRDSYQQCHIVGAYSYPIATLSRTMNPYSNDILEYKNAHGKIIILYDDDERLASQAATTMCERGFENLFMLSGGLKVLAQKFPEGLITGSLPASCQQALPPGSARKRSSPKGPPLPAENKWRFTPEDLKKIEYYLEEEQGPADHPSRLNQANSSGRESKVPGARSAQNLPGGGPASHSNPRSLSSGHLQGKPWK [CEP41] on HeLa Kyoto, solubility change mitosis (log2) = 0.231

Bench note, HeLa Kyoto: MPFPFGKSHKSPADIVKNLKESMAVLEKQDISDKKAEKATEEVSKNLVAMKEILYGTNEKEPQTEAVAQLAQELYNSGLLSTLVADLQLIDFEGKKDVAQIFNNILRRQIGTRTPTVEYICTQQNILFMLLKGYESPEIALNCGIMLRECIRHEPLAKIILWSEQFYDFFRYVEMSTFDIASDAFATFKDLLTRHKLLSAEFLEQHYDRFFSEYEKLLHSENYVTKRQSLKLLGELLLDRHNFTIMTKYISKPENLKLMMNLLRDKSRNIQFEAFHVFKVFVANPNKTQPILDILLKNQAKLIEFLSKFQNDRTEDEQFNDEKTYLVKQIRDLKRPAQQEA [CAB39] , solubility change mitosis (log2) reads -0.178
